Overview of reported EC50 across a group of compounds:
- System: Hepatitis C virus
- Assay: Antiviral activity against HCV 1b strain N with NS5B polymerase C316Y mutation infected in chimpanzee measured on day 28
- Assay type: functional, organism-based, Hepacivirus hominis
- Measurement context: genotype 1b strain N, 672 h
Note: state the figure and append the unit.

Compound | EC50
COc1ccc2c(O[C@@H]3C[C@H]4C(=O)N[C@]5(C(=O)O)C[C@H]5/C=C\CCCCC[C@H](NC(=O)OC5CCCC5)C(=O)N4C3)cc(-c3csc(NC(C)C)n3)nc2c1 [CILUPREVIR] | 1.3 nM

Turning now to a further compound:
Recall and state the measured EC50 for CC(C)CC[C@@]1(C)C(=O)C(C2=NS(=O)(=O)c3cc(NS(C)(=O)=O)ccc3N2)=C(O)c2ccccc21 .
350 nM

###

- Assay: Half life in rat at 5 mg/kg, po
- Assay type: ADME, organism-based
- Set-up: dose 5 mg/kg, route oral
- Measurement context: in vivo
Measure name: half-life (h)
// note: answer is a bare numeric in h

Recall and state the measured half-life for CC(C)CC[C@@]1(C)C(=O)C(C2=NS(=O)(=O)c3cc(NS(C)(=O)=O)ccc3N2)=C(O)c2ccccc21 .
7.6

###

- Tested on: Hepatitis C virus
- Assay: Inhibition of HCV 1b strain N NS5B polymerase by [3H]UTP incorporation assay
- Design: species or system Hepatitis C virus subtype 1b
Measure name: IC50
Note: state the figure and append the unit.

Report value only: IC50, Hepatitis C virus, CC(C)CC[C@@]1(C)C(=O)C(C2=NS(=O)(=O)c3cc(NS(C)(=O)=O)ccc3N2)=C(O)c2ccccc21
0.33 nM

###

- Assay: Cmax in HCV 1a H77 infected chimpanzee at 30 mg/kg, po BID for 14 days measured after 2 hrs of postdose
- Assay type: ADME, organism-based, Pan troglodytes
- Set-up: dose 30 mg/kg, route oral
- Measurement context: in vivo
Measure name: Cmax (ng/mL)
// note: answer is a bare numeric in ng/mL

Recall and state the measured Cmax for CC(C)CC[C@@]1(C)C(=O)C(C2=NS(=O)(=O)c3cc(NS(C)(=O)=O)ccc3N2)=C(O)c2ccccc21 .
5490

###

- Assay: Oral bioavailability in rat at 5 mg/kg
- Assay type: ADME, organism-based
- Measurement context: in vivo
Measure name: bioavailability (%)
// note: answer is a bare numeric in %

Recall and state the measured bioavailability for CC(C)CC[C@@]1(C)C(=O)C(C2=NS(=O)(=O)c3cc(NS(C)(=O)=O)ccc3N2)=C(O)c2ccccc21 .
62.7

###

- Assay: Oral bioavailability in monkey at 5 mg/kg
- Assay type: ADME, organism-based, Macaca mulatta
- Measurement context: rhesus monkey, in vivo
Measure name: bioavailability (%)
// note: answer is a bare numeric in %

Recall and state the measured bioavailability for CC(C)CC[C@@]1(C)C(=O)C(C2=NS(=O)(=O)c3cc(NS(C)(=O)=O)ccc3N2)=C(O)c2ccccc21 .
15.2

###

- System: Hepatitis C virus
- Assay: Antiviral activity against HCV 1a H77 after 4 days by RT-PCR in presence of 40% human serum
- Assay type: functional, organism-based, Hepacivirus hominis
- Measurement context: genotype 1a H77, 96 h
Measure name: EC50 (nM)
// note: answer is a bare numeric in nM

Recall and state the measured EC50 for CC(C)CC[C@@]1(C)C(=O)C(C2=NS(=O)(=O)c3cc(NS(C)(=O)=O)ccc3N2)=C(O)c2ccccc21 .
143

###

- Assay: Half life in monkey at 5 mg/kg, po
- Type: ADME, organism-based, Macaca mulatta
- Design: dose 5 mg/kg, route oral
- Measurement context: rhesus monkey, in vivo
Measure name: half-life
Note: state the figure and append the unit.

Recall and state the measured half-life for CC(C)CC[C@@]1(C)C(=O)C(C2=NS(=O)(=O)c3cc(NS(C)(=O)=O)ccc3N2)=C(O)c2ccccc21 .
1.9 h

###

- Assay: AUC in dog at 5 mg/kg, po
- Assay type: ADME, organism-based, Canis lupus familiaris
- Design: dose 5 mg/kg, route oral
- Measurement context: plasma
Measure name: AUC (ng·h/mL)
// note: answer is a bare numeric in ng·h/mL

Recall and state the measured AUC for CC(C)CC[C@@]1(C)C(=O)C(C2=NS(=O)(=O)c3cc(NS(C)(=O)=O)ccc3N2)=C(O)c2ccccc21 .
10500
